tested_target: Aurora-2 (Homo sapiens)
Sequence (O14965 1-403): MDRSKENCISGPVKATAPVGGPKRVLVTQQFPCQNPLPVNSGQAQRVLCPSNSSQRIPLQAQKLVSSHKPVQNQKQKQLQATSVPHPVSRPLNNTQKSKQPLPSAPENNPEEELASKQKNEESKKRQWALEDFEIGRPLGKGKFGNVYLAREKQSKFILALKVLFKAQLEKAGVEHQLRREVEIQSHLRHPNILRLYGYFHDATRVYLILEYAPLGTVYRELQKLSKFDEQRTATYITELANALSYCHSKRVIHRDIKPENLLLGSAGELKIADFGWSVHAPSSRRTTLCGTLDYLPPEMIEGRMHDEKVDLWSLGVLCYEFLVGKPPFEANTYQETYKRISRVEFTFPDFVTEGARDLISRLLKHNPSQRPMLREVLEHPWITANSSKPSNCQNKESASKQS
assay_protocol: Inhibition assay of Aurora-2 activity (SPA technology)
Assay type: biochemical
experimental_parameters: screened according to the methods of the pharmacology section; read-out: IC50 values for Aurora-2 inhibition
pIC50: −log10 of the molar value.
A collection of compounds and their measured pIC50

1. CN1CCC(Oc2ccc(C(=O)Nc3n[nH]c4sc(C(=O)NC(C)(C)c5ccccc5)cc34)cc2)CC1 > 7.70
2. CN1CCN(c2ccc(C(=O)Nc3n[nH]c4sc(C(=O)NC5(c6ccccc6)CC5)cc34)cc2)CC1 > 7.70
3. CC(C)(NC(=O)c1cc2c(NC(=O)c3ccc(CN4CCNCC4)cc3)n[nH]c2s1)c1ccccc1 > 7.70

# next compound below
(Q) Recall the recorded pIC50 for CC(C)(NC(=O)c1cc2c(NC(=O)c3ccc(CN4CCCCC4)cc3)n[nH]c2s1)c1ccc(F)cc1 with Aurora-2 (Homo sapiens) and state it.
(A) > 7.70

###

The entries below come with measured IC50 values attached.
tested_target: UniProtKB O14965
assay_protocol: Inhibition assay of Aurora-2 activity (SPA technology)
Format: biochemical
experimental_parameters: SPA assay, 10 μM ATP, 60 minutes at room temperature; read-out: Aurora-2 inhibition IC50
Procedure: The inhibiting activity and the potency of selected compounds is determined through a method of assay based on the use of the SPA technology (Amersham Pharmacia Biotech). The assay consists of the transfer of radioactivity labelled phosphate moiety by the kinase to a biotinylated substrate. The resulting 33P-labelled biotinylated product is allowed to bind to streptavidin-coated SPA beads (biotin capacity 130 pmol/mg), and light emitted was measured in a scintillation counter. […]
Number in nM, nothing else.

The cases that follow already have their IC50 on record.
compound	tested_target	units	endpoint_result
CN1CCN(c2ccc(C(=O)Nc3n[nH]c4sc(C(=O)NC(C)(C)c5ccccc5)cc34)cc2)CC1	UniProtKB O14965	nM	1
CC(C)(NC(=O)c1cc2c(NC(=O)c3cccs3)n[nH]c2s1)c1ccccc1	UniProtKB O14965	nM	3

(Q) Lab request: please report IC50 under test system UniProtKB O14965 for O=C(Nc1n[nH]c2sc(C(=O)NCc3ccccc3)cc12)c1ccc(N2CCOCC2)cc1 [Reference compound, reference compound]
(A) 18

###

tested_target: Aurora-2 (Homo sapiens)
assay_protocol: Inhibition assay of Aurora-2 activity (SPA technology)
Type: biochemical
experimental_parameters: SPA assay, 10 μM ATP, 60 minutes at room temperature; read-out: Aurora-2 inhibition IC50
readout_label: pIC50
In simple prose, pIC50 is minus the logarithm base ten of a concentration in moles per litre.

Below, each entry is followed by its recorded pIC50 result.
1. O=C(Nc1n[nH]c2sc(C(=O)NC3(c4ccccc4)CC3)cc12)c1ccc(N2CCOCC2)cc1 8.52
2. C[C@@H](NC(=O)c1cc2c(NC(=O)c3ccc(N4CCOCC4)cc3)n[nH]c2s1)c1ccc(F)cc1 8.22
3. CC(C)(NC(=O)c1cc2c(NC(=O)c3ccc(N4CCOCC4)cc3)n[nH]c2s1)c1ccccc1 8.30

Turning to the following molecule.
(Q) Given the entry O=C(Nc1n[nH]c2sc(C(=O)N[C@H](CN3CCCC3)c3ccccc3)cc12)c1ccc(N2CCOCC2)cc1 , report its measured pIC50.
(A) 8.05

Entry source: patent US8481584B2
